- EXPERIMENTAL_PROTOCOL: Single ascending dose plasma pharmacokinetics (Part 1)
- Assay type: in vivo, human
- CONDITION_NOTES: male, human, plasma, po, 4 mg
RECORDED_METRIC: AUC(0-t) (ng·h/mL)
Report the value in ng·h/mL with no unit label.

Query: Which AUC(0-t) is reported for this compound? C=C[C@@H]1C[C@]1(NC(=O)[C@@H]1C[C@@H](Oc2cc(-c3csc(NC(=O)C(C)C)n3)nc3c(Br)c(OC)ccc23)CN1C(=O)[C@@H](NC(=O)OC1CCCC1)C(C)(C)C)C(=O)O
Reply: 201

====

- EXPERIMENTAL_PROTOCOL: Single ascending dose plasma pharmacokinetics (Part 1)
- Assay type: in vivo, human
- CONDITION_NOTES: male, human, plasma, po, 1200 mg; read-out: Vz/F
RECORDED_METRIC: Vd/F (L)
Report the value in L with no unit label.

Query: Which Vd/F is reported for this compound? C=C[C@@H]1C[C@]1(NC(=O)[C@@H]1C[C@@H](Oc2cc(-c3csc(NC(=O)C(C)C)n3)nc3c(Br)c(OC)ccc23)CN1C(=O)[C@@H](NC(=O)OC1CCCC1)C(C)(C)C)C(=O)O
Reply: 65

====

- EXPERIMENTAL_PROTOCOL: Single ascending dose plasma pharmacokinetics (Part 1)
- Type: in vivo, human
- CONDITION_NOTES: male, human, plasma, po, 800 mg; read-out: Vz/F
RECORDED_METRIC: Vd/F (L)
Report the value in L with no unit label.

Query: Which Vd/F is reported for this molecule? C=C[C@@H]1C[C@]1(NC(=O)[C@@H]1C[C@@H](Oc2cc(-c3csc(NC(=O)C(C)C)n3)nc3c(Br)c(OC)ccc23)CN1C(=O)[C@@H](NC(=O)OC1CCCC1)C(C)(C)C)C(=O)O
Reply: 141

====

- EXPERIMENTAL_PROTOCOL: Single ascending dose plasma pharmacokinetics (Part 1)
- Type: in vivo, human
- CONDITION_NOTES: male, human, plasma, oral; range over single doses of 4–1,200 mg; read-out: geometric mean (gMean) AUC0-inf
RECORDED_METRIC: AUC(0-inf)

Query: Which AUC(0-inf) is reported for this compound? C=C[C@@H]1C[C@]1(NC(=O)[C@@H]1C[C@@H](Oc2cc(-c3csc(NC(=O)C(C)C)n3)nc3c(Br)c(OC)ccc23)CN1C(=O)[C@@H](NC(=O)OC1CCCC1)C(C)(C)C)C(=O)O [FDV, Faldaprevir]
Reply: 0.254 to 402 µg·h/mL

====

- EXPERIMENTAL_PROTOCOL: Single ascending dose plasma pharmacokinetics (Part 1)
- Assay type: in vivo, human
- CONDITION_NOTES: male, human, plasma, po, 240 mg
RECORDED_METRIC: AUC(0-t) (ng·h/mL)
Report the value in ng·h/mL with no unit label.

Query: Which AUC(0-t) is reported for this molecule? C=C[C@@H]1C[C@]1(NC(=O)[C@@H]1C[C@@H](Oc2cc(-c3csc(NC(=O)C(C)C)n3)nc3c(Br)c(OC)ccc23)CN1C(=O)[C@@H](NC(=O)OC1CCCC1)C(C)(C)C)C(=O)O [FDV, Faldaprevir]
Reply: 36100

====

- EXPERIMENTAL_PROTOCOL: Single ascending dose plasma pharmacokinetics (Part 1)
- Type: in vivo, human
- CONDITION_NOTES: male, human, plasma, po, 1200 mg; read-out: Cmax
RECORDED_METRIC: Cmax (ng/mL)
Report the value in ng/mL with no unit label.

Query: Which Cmax is reported for this compound? C=C[C@@H]1C[C@]1(NC(=O)[C@@H]1C[C@@H](Oc2cc(-c3csc(NC(=O)C(C)C)n3)nc3c(Br)c(OC)ccc23)CN1C(=O)[C@@H](NC(=O)OC1CCCC1)C(C)(C)C)C(=O)O [FDV, Faldaprevir]
Reply: 16500

====

- EXPERIMENTAL_PROTOCOL: Single ascending dose plasma pharmacokinetics (Part 1)
- Type: in vivo, human
- CONDITION_NOTES: male, human, plasma, po, 240 mg; read-out: Vz/F
- Protocol: One dose level was tested within each group. Subject groups were dosed and evaluated sequentially, beginning with the lowest-dose group and proceeding stepwise to the highest-dose group. Blood samples were taken pre-dose (0) and at prespecified time points after dosing (Figure 1). At each time point, approximately 4.9 mL of blood was drawn into evacuated collection tubes, containing ethylene diamine tetraacetate (EDTA) anticoagulant and labeled with sample identification information. […]
RECORDED_METRIC: Vd/F (L)
Report the value in L with no unit label.

Query: Which Vd/F is reported for this compound? C=C[C@@H]1C[C@]1(NC(=O)[C@@H]1C[C@@H](Oc2cc(-c3csc(NC(=O)C(C)C)n3)nc3c(Br)c(OC)ccc23)CN1C(=O)[C@@H](NC(=O)OC1CCCC1)C(C)(C)C)C(=O)O
Reply: 200

====

- EXPERIMENTAL_PROTOCOL: Single ascending dose plasma pharmacokinetics (Part 1)
- Format: in vivo, human
- CONDITION_NOTES: male, human, plasma, po, 4 mg; read-out: Vz/F
RECORDED_METRIC: Vd/F (L)
Report the value in L with no unit label.

Query: Which Vd/F is reported for this compound? C=C[C@@H]1C[C@]1(NC(=O)[C@@H]1C[C@@H](Oc2cc(-c3csc(NC(=O)C(C)C)n3)nc3c(Br)c(OC)ccc23)CN1C(=O)[C@@H](NC(=O)OC1CCCC1)C(C)(C)C)C(=O)O
Reply: 868

====

- EXPERIMENTAL_PROTOCOL: Food effect on relative bioavailability of 480 mg FDV, two-period crossover (Part 2)
- Assay type: in vivo, human
- CONDITION_NOTES: male, human, plasma, oral, 480 mg, FDV 480 mg/fasted; median (range), N = 7; read-out: tmax
- Procedure: Blood samples were taken pre-dose (0) and at prespecified time points after dosing (Figure 1). At each time point, approximately 4.9 mL of blood was drawn into evacuated collection tubes, containing ethylene diamine tetraacetate (EDTA) anticoagulant and labeled with sample identification information. […]
RECORDED_METRIC: Tmax (h)
Report the value in h with no unit label.

Query: Which Tmax is reported for this compound? C=C[C@@H]1C[C@]1(NC(=O)[C@@H]1C[C@@H](Oc2cc(-c3csc(NC(=O)C(C)C)n3)nc3c(Br)c(OC)ccc23)CN1C(=O)[C@@H](NC(=O)OC1CCCC1)C(C)(C)C)C(=O)O
Reply: 6

====

- EXPERIMENTAL_PROTOCOL: Single ascending dose plasma pharmacokinetics (Part 1)
- Format: in vivo, human
- CONDITION_NOTES: male, human, plasma, po, 120 mg
RECORDED_METRIC: AUC(0-t) (ng·h/mL)
Report the value in ng·h/mL with no unit label.

Query: Which AUC(0-t) is reported for this molecule? C=C[C@@H]1C[C@]1(NC(=O)[C@@H]1C[C@@H](Oc2cc(-c3csc(NC(=O)C(C)C)n3)nc3c(Br)c(OC)ccc23)CN1C(=O)[C@@H](NC(=O)OC1CCCC1)C(C)(C)C)C(=O)O [FDV, Faldaprevir]
Reply: 9660

====

- EXPERIMENTAL_PROTOCOL: Single ascending dose plasma pharmacokinetics (Part 1)
- Type: in vivo, human
- CONDITION_NOTES: male, human, plasma, po, 800 mg
RECORDED_METRIC: AUC(0-t) (µg·h/mL)
Report the value in µg·h/mL with no unit label.

Query: Which AUC(0-t) is reported for this compound? C=C[C@@H]1C[C@]1(NC(=O)[C@@H]1C[C@@H](Oc2cc(-c3csc(NC(=O)C(C)C)n3)nc3c(Br)c(OC)ccc23)CN1C(=O)[C@@H](NC(=O)OC1CCCC1)C(C)(C)C)C(=O)O [FDV, Faldaprevir]
Reply: 127

====

- EXPERIMENTAL_PROTOCOL: Single ascending dose plasma pharmacokinetics (Part 1)
- Assay type: in vivo, human
- CONDITION_NOTES: male, human, plasma, po, 800 mg; read-out: Cmax
RECORDED_METRIC: Cmax
Quote the value and follow it with the unit of measurement.

Query: Which Cmax is reported for this molecule? C=C[C@@H]1C[C@]1(NC(=O)[C@@H]1C[C@@H](Oc2cc(-c3csc(NC(=O)C(C)C)n3)nc3c(Br)c(OC)ccc23)CN1C(=O)[C@@H](NC(=O)OC1CCCC1)C(C)(C)C)C(=O)O [FDV, Faldaprevir]
Reply: 6630 ng/mL

====

- EXPERIMENTAL_PROTOCOL: Single ascending dose plasma pharmacokinetics (Part 1)
- Type: in vivo, human
- CONDITION_NOTES: male, human, plasma, po, 16 mg; read-out: Vz/F
RECORDED_METRIC: Vd/F (L)
Report the value in L with no unit label.

Query: Which Vd/F is reported for this compound? C=C[C@@H]1C[C@]1(NC(=O)[C@@H]1C[C@@H](Oc2cc(-c3csc(NC(=O)C(C)C)n3)nc3c(Br)c(OC)ccc23)CN1C(=O)[C@@H](NC(=O)OC1CCCC1)C(C)(C)C)C(=O)O [FDV, Faldaprevir]
Reply: 600
